Source: the RNAGym collection of RNA variant scans (doi:10.1073/pnas.2313332121)

B1: TPR t1 (parent)
chain: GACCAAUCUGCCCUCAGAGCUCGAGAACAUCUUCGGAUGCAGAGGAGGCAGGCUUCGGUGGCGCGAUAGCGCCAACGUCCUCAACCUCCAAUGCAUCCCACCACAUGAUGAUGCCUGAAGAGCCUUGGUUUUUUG

Variants of: B1
METHOD DESCRIPTION: polymerase ribozyme fitness, log enrichment relative to wild type (log ratio); higher = more active; in vitro selection for triplet polymerase activity
TEST READOUT: polymerase ribozyme fitness (log ratio)
API doc: respond with a numeric literal and nothing else, no unit.

Solved cases (3 shown):
PRIMARY SEQUENCE	RECORDED VALUE
GACCAAUGUGCCCUCAGAGCUCGAGAACAUCUUCGGAUGCAGAGGAGGCAGGCUUCGGUGGCGCGAUAGCGCCAAUGUCCUCAACCUCCAAUGCAUCCCACCACAUGAUGAUGCCUGAAGAGCCUUGGUUUUUUG	-0.187
GAUCAAUCUGCCCUCAGAGCUCGAGAACAUCUUCGGAUGCAGAGGAGGCAGGCUUCGGUGGCGCGAUAGAGCCAACGCCCUCAACCUCCACUGCAUGCCACCACAUGAUGAUGCCUGAAGUGCCUUGGUUUUUUG	-6.74
GACCAAUCUGCCCUCAGAGCUCGAGAACAUCUUCGGAUGCAGAGGAGGCAGACUUCGGUGGCGCGAUAGCGCCAACGUCCUUAACCUCCAAUGCAUCCCACCACAUGAUGAUGCCUGAAGAGCCUUGGUUUUUUG	-0.917

-- ask Which polymerase ribozyme fitness (log ratio) is reported for this variant? `GACCAAUCCGCCCUCAGAGCUCGAGAACAUCUUCGGAUGCAGAGGAGGCAGGCUUCGGUGGCGCGAUAGCGCCAACGUCGUCAACCUCCAAUGCAUCCCACCACAUGAUGAUGCCUGAAGAGCCUUGGUUUUUUG`
-- reply -5.3

-- ask Which polymerase ribozyme fitness (log ratio) is reported for this variant? `GACCAAUCUGCCCUCAGAGCUCGAGAACAUCUUCGGAUGCAGAGGAGGCAGGCCUCGGUGGCGCGAUAGCGCCAACGUCCUCAACCUCCAAUGCAUCCCACCACAUGAAGAUGCCUGAACAGCCUUGGUUUUUUG`
-- reply -5.52

-- ask Which polymerase ribozyme fitness (log ratio) is reported for this variant? `GACCAAUCUGCCCUCAGAGCUCGAGAACAUCUUCGGAUGCAGACGAGGCAGGCUUCGGUGGCGUGAUAGCGCCAACGUCCUCAACCUCCAAUGCAUCCCACCACAUGAUGGUGCCUGAAGAGCCUUGGUUUUAUG`
-- reply -0.585

-- ask Which polymerase ribozyme fitness (log ratio) is reported for this variant? `GACCAAUCUGCCCUCAGAGCUCGAGAACAUCUUCGGAUGCAGAGCAGCCAGGCUUCGGUGGCGCGAUAGCGCCAACGUCCUCAACCUCCAAUGCAUCCCACCACAUGAUGAUGCCUGAAGAGCCUUGGUUUUUUG`
-- reply -2.05

-- ask Which polymerase ribozyme fitness (log ratio) is reported for this variant? `GACCAAUCUGCCCUCAGUGCUCGAGAACAUCUUCGGAUGCAGAGGAGGCAGGCUUCGGUGGAGCGAUAGCGCCAACGUCCUCAACCUCCAAUGCAUCCCACCACAUGAUGAUGCCUGAAGAGCCUUGGUUUUUUG`
-- reply -4.11

-- ask Which polymerase ribozyme fitness (log ratio) is reported for this variant? `GACCAAUCUGCCCUCAGAGCUCGAGAACAUCUUCGGAUGCAGAGGAGGCAGGCUUCGGUGUCGCGAUAGCGCCAACGUCCCCAACGUCCAAUGCAUCCCACCACAUGAUGAUUCCUGAUGAGCCUUGGUUUUUUG`
-- reply -6.31

-- ask Which polymerase ribozyme fitness (log ratio) is reported for this variant? `GACCAAUCUGCCCUCAGAGCUCGAGAACAUCUUCGGAUGCAGAGGAGGCAGGCUUCGGUGGCGCGAUAGCGCCAACGUCCUCAACCUCCAAUGCAUCCCACCACAUGAUGAUGCCUGAAGAGCCUUCUUUUUAUG`
-- reply -1.83

-- ask Which polymerase ribozyme fitness (log ratio) is reported for this variant? `GACCAAUCUGCCCUCAGAGCUCGAGAACAUCUUCGGAUGCAGAUGAGGCAGGCUUCGGUGGCGCGAUAGCGCCAACGUCCUCAACCUCCAAUGCCUCCCACCACAUGAUGAUGCCUGAAGAGCCUUGGUUUUUUG`
-- reply -2.44

-- ask Which polymerase ribozyme fitness (log ratio) is reported for this variant? `GACCAAUCUGCCCUCAGAGCUCGACAACAUCUUCGGAUGCAGAGGAGGCAGGCUUCGGUGGCGCGAUAGCGCCAACGUCCUCAACCUCCAAUGCAUUCCACCAAAUGAGGAUGCCUGAAGAGCCUUGGUUUUUUG`
-- reply -6.31

-- ask Which polymerase ribozyme fitness (log ratio) is reported for this variant? `GACCAAUCUGCCCUCAGAGCUCGAGAACAUCUUCGGAUGUAGAGGAGGCAGGCUUCGGUGGCGCGAUAGCGCCAACGUCCUCAACCUCCAAUGUAUCCCACCACAUGAUGAUGCCUGAAGAGCCUUGGUUUUUUG`
-- reply -1.54

-- ask Which polymerase ribozyme fitness (log ratio) is reported for this variant? `GACCACUCUGCCCUCAGAGCUCGAGAACAUCUUCGGAUGCAGAGGAGGCAGGCUUCGGUGGCGCGAUAGCGCCAACGUCCUCAACCUGCAAUGCAUCCCACCACAUGAUGAUGCGUGAAGAGCCUUGGUUUUUUG`
-- reply -4.52

-- ask Which polymerase ribozyme fitness (log ratio) is reported for this variant? `GACCAAUUUUCCCUCAGAGCUCGAGAACAUCUUCGGAUGCAGAGGAGGCAGGCUUCGGUGGCGCGAUAGCGUCAACGUCCUCAACCUCCAAUGCAUCCCACCACAUGAUGAUGCCUGAAGAGCCUUGGUUUUUUG`
-- reply -0.279

-- ask Which polymerase ribozyme fitness (log ratio) is reported for this variant? `GACCAAUCUGCCCUCAGAGCUCGAGAACAUCUUCGGAUGCAUAGGAGGCAGGCGUCGGUGGCGCGAUAGCGCCAAUGUCCUCAACCUCCAAUGCAUCCCACCACAUGAUGGUGCCUGAAGAGCCUUGGUUUUUUG`
-- reply -2.36

-- ask Which polymerase ribozyme fitness (log ratio) is reported for this variant? `GACCAAUCUGCCCUCAGAGCUCGAGAACAUCUUCGGAUGCAAAGGAGGCAGGCUUCGGUGGCGCGAUAGCACCAACGUCCUCAACCUCCAAUGCAUCCCACCACAUGAUGAUGCCUGAAGAGCCUUGGUUUUUUG`
-- reply -3.35

-- ask Which polymerase ribozyme fitness (log ratio) is reported for this variant? `GAUCAAUCUGCCCUCAGAGCUCGAGAACAUCUUCGGAUGCAGAGGAGCCAGGCUUCGGUGGCGCGAUAGCGCCAACGUCCUGAACCUCCAAUGCAUCCCACCACAUGAUGAUGCCUGAAGAGCCUUGGUUUUUUG`
-- reply -1.66

-- ask Which polymerase ribozyme fitness (log ratio) is reported for this variant? `GACCAAUCUGCCCUCAGAGCUCGAGAACAUCUUCGGAUGCAGAGGAGGCAGGCUUCGGUGGCGCGAUAGCGCCAACGUCCUCAACCUCCAAGCCAUCCCACCACAUGAUGAUGCCUGAAGAGCCUUGGUUUUUUG`
-- reply -3.76

-- ask Which polymerase ribozyme fitness (log ratio) is reported for this variant? `GACCAAUCUGGCCUCAGAGCUCGAGAACAUCUUCGGAUGCAGAGGAGGCAGGCUUCGGUGGUGCGAUAGCGCCAACGUCCUCAACCUCCAAUGCAUCCCACCACAUGAUGAUGCCUGAAGAGCCUUGGUUUUUUG`
-- reply -0.108

-- ask Which polymerase ribozyme fitness (log ratio) is reported for this variant? `GACCAAUCUGCCCUCAGAGCUCGAGAACAUCUUCGGAUGCAGAGGAGGCAGGCUUCGGUGGCGCGAUAGCGCCAACAUCCUCAACCUCCGAUGCAUCCCACCACAUGAUGAUGCCUGAAGAGCCUUGGUUUUUUG`
-- reply -0.174

-- ask Which polymerase ribozyme fitness (log ratio) is reported for this variant? `GACCAAUCUGCCCUCAGAGCUCGAGAACAUCUUCGGAUACAGAGGAGGCAGGCUUCGGUGGCGCGAUAGCGCCAACGUCCUCAUCCUCCAAUGCAUCCCACCACAUGAUGAUGCCUGAAGAGCCUUGGUUUUUUG`
-- reply -1.22
